Data origin: patent US20060069132A1

# System: eastern black nightshade
# protocol: Test C pre-/postemergence herbicide test
# Type: in vivo, Solanum ptycanthum
# condition context: 125 g ai/ha; scale 0 (no effect) to 100 (complete control); visual, 12 to 14 days; preemergence
assay readout: Plant response rating, Nightshade
Enter the number alone.

// worked examples, Plant response rating, Nightshade included
compound_smiles=CCn1nc(C(C)(C)C)cc1C(=O)Nc1cc(C(=S)N(C)C)ccn1 assay_readout="Plant response rating, Nightshade" test_value=100
compound_smiles=CCCN1CCc2c(NC(=O)c3cc(C(C)(C)C)nn3CC)cccc2C1=O assay_readout="Plant response rating, Nightshade" test_value=90

Which value of Plant response rating, Nightshade has been reported for CCOC(=O)c1cc(NC(=O)c2cc(C(C)(C)C)nn2CC)ccc1OC in the records?
95

====

# Tested on: pigweed
# protocol: Test B pre-/postemergence herbicide test
# Assay type: in vivo, Amaranthus retroflexus
# condition context: postemergence, 125 g ai/ha; visual rating, scale 0 (no effect) to 100 (complete control)
Pigweed plant response rating values by entry
Enter the number alone.

compound="CC(=NO)c1cc(NC(=O)c2cc(C(C)(C)C)nn2C)ccc1F [Compound 109]" assay_readout="Pigweed plant response rating" test_value=20
compound="CCn1nc(C(C)(C)C)cc1C(=O)Nc1cccc2c1CCN(C1CC1)C2=O [Compound 64]" assay_readout="Pigweed plant response rating" test_value=20
compound="CCN(CC)C(=O)c1cccc(NC(=O)c2nn(C(C)(C)C)cc2C(F)(F)F)c1 [Compound 169]" assay_readout="Pigweed plant response rating" test_value=20

Below: the item to evaluate.
Which value of Pigweed plant response rating has been reported for CCNC(=O)c1ccc(OC)c(NC(=O)c2cc(C(C)(C)C)nn2CC)n1 [Compound 266] in the records?
20

====

Barnyardgrass plant response rating values by entry
# Test system: barnyardgrass
# protocol: Test B flooded paddy test
# Format: in vivo, Echinochloa crus-galli
# condition context: 1000 g ai/ha, visual rating, scale 0 to 100 (0 no effect, 100 complete control), 13 to 15 days

compound_smiles=CCn1nc(C(C)(C)C)cc1C(=O)Nc1cccc(C(N)=O)n1 measured_target=barnyardgrass test_value=80
compound_smiles=CCNC(=O)c1cccc(NC(=O)c2sc(C(C)(C)C)nc2CC)c1 measured_target=barnyardgrass test_value=80

Which value of Barnyardgrass plant response rating has been reported for CC(=NO)c1cc(NC(=O)c2cc(C(C)(C)C)nn2C)ccc1F in the records?
80

====

# System: barnyardgrass
# protocol: Test A pre-/postemergence herbicide test
# Type: in vivo, Echinochloa crus-galli
# condition context: Preemergence, 500 g ai/ha; visual rating, 0 to 100 scale (0 no effect, 100 complete control)
Barnyardgrass plant response rating values by entry

compound="CCn1nc(C(C)(C)C)cc1C(=O)Nc1nc(OC)cc(OC)n1 [Compound 166]" assay_readout="Barnyardgrass plant response rating" test_value=0
compound="CCn1nc(C(C)(C)C)cc1C(=O)Nc1cc(C(=O)OC)cc(C)n1 [Compound 148]" assay_readout="Barnyardgrass plant response rating" test_value=0

Below: the item to evaluate.
Please provide the recorded Barnyardgrass plant response rating for C=Cn1nc(C(C)(C)C)cc1C(=O)Nc1cccc(C(C)=NO)c1 [Compound 114] , tested on barnyardgrass.
25

====

# Tested on: lambsquarters
# protocol: Test B pre-/postemergence herbicide test
# Assay type: in vivo, Chenopodium album
# condition context: postemergence, 125 g ai/ha; visual rating, scale 0 (no effect) to 100 (complete control)
# Experimental: […] At the same time, plants selected from these crop and weed species and also blackgrass (Alopecurus myosuroides Huds.), wheat (Triticum aestivum L.) and wild oat (Avena fatua L.) were treated with postemergence applications of test chemicals formulated in the same manner. […] Treated plants and controls were maintained in a greenhouse for 13 to 15 days, after which time all species were compared to controls and visually evaluated. […]
assay readout: Lambsquarters plant response rating
Enter the number alone.

Which value of Lambsquarters plant response rating has been reported for CCNC(=O)c1ccc(OC)c(NC(=O)c2cc(C(C)(C)C)nn2CC)n1 in the records?
60

Input CCn1nc(C(C)(C)C)cc1C(=O)Nc1cc(C(=O)N2CC=CC2)ccn1
60

Input CCc1nc(C(C)(C)C)sc1C(=O)Nc1cccc(C(=O)NCC(C)C)c1
60
